All figures here come from PubChem BioAssay (NCI).

System: SF-539 CNS
Assay: NCI tumour cell line growth inhibition, 48 h
Give TGI for every item shown.

Problem: Form field - read-out: TGI; system: SF-539 CNS; submitted item: CC(=O)N1OC(C)CC1Nc1ccc(Br)cc1 (stereo unspecified)
Solution: > 100 µM

Problem: # returns recorded TGI (system: SF-539 CNS) for C[S+](C)CCOC(=O)C(=[N+]=[N-])c1ccc([N+](=O)[O-])cc1
Solution: > 100 µM

Problem: # query: TGI | item COC(=O)C1(c2cc3ccccc3n2S(=O)(=O)c2ccccc2)CC2C=CC1NC2 (stereo unspecified) | system: SF-539 CNS
Solution: 3.55 µM

Problem: Give recorded TGI with SF-539 CNS for the following compound: O=C1C(N2CCNCC2)=C(Cl)C(=O)c2ncccc21
Solution: > 10 µM

Problem: Checklist item: TGI tested on SF-539 CNS, entry CCCCc1c2c(nc3c1CCCC3O)CCCC2 (stereo unspecified) , value?
Solution: > 100 µM

Problem: Recorded TGI for Cn1c(=O)nc2n(-c3cccc(Br)c3)c3ccccc3nc-2c1=O with SF-539 CNS, please?
Solution: 18.2 µM

Problem: Give TGI (SF-539 CNS) of the following compound: COc1ccc(/C=C/C(=O)/C=C/c2ccc(OC)cc2)cc1
Solution: 72.7 µM

Problem: Form field - read-out: TGI; system: SF-539 CNS; submitted item: CC(C)c1ccc(C2C3=C(N=C4SCC(=O)N42)C(=O)c2ccccc23)cc1 (stereo unspecified)
Solution: > 100 µM

Problem: Param readout = TGI; param system = SF-539 CNS; param query = O=C(CN1CCN(CCCOc2c(-c3ccccc3)oc3ccccc3c2=O)CC1)Nc1ccc(Cl)cc1C(=O)c1ccccc1Cl ; response: value
Solution: 22.2 µM

Problem: Hi! What's the reported TGI for BrC1=CC=C2NC=CC3=CC=NC1C32 (stereo unspecified) on SF-539 CNS?
Solution: > 100 µM

Problem: Record lookup: for SF-539 CNS, what TGI belongs to CCn1c(CN2CCN(Cc3ccccc3)CC2)nc2cc(NC(=O)c3cccs3)ccc21 ?
Solution: 28.4 µM

Problem: Requested read-out TGI, target or system SF-539 CNS, entry CC[C@H](Nc1nc(NCc2cnc(C)cc2C)c2ncn(C(C)C)c2n1)[C@@H](C)O
Solution: 0.781 µM

Problem: Param readout = TGI; param system = SF-539 CNS; param query = COc1cc(NC(C)=O)ccc1C(=O)N/N=C/c1ccc(Cl)cc1Cl ; response: value
Solution: > 100 µM

Problem: Request body: readout TGI, system SF-539 CNS, query CCCCCCCCCCCCCC(=O)CC(=O)c1c(O)cccc1O . Return the value.
Solution: > 100 µM

Problem: Find TGI (SF-539 CNS) for the entry Nc1c(Br)cc(Br)c2c1[nH]c(=O)c1ccccc12
Solution: > 100 µM

Problem: Query for SF-539 CNS: what TGI does the record show for CCCc1cc2c(=O)c(C(=O)OC)c[nH]c2cc1N(CC)CC ?
Solution: > 100 µM

Problem: Item Nc1nc(N)c(C2=CCNCC2)c(=O)[nH]1 with SF-539 CNS - TGI?
Solution: > 100 µM

Problem: Give TGI (SF-539 CNS) of the following compound: COc1cc(C)c(Cl)cc1C1=NN(c2ccc(S(N)(=O)=O)cc2)C(/C=C/c2ccccc2)C1 (stereo unspecified)
Solution: 17 µM

Problem: Checklist item: TGI tested on SF-539 CNS, entry CC(=O)[CH-]C(=O)c1ccccc1.CC(=O)[CH-]C(=O)c1ccccc1.CC(C)CCCC(C)[C@H]1CCC2[C@@H]3CC=C4C[C@@H]([O-])CC[C@]4(C)C3CC[C@@]21C.CC[O-].[Ti+4] (stereo partly specified) , value?
Solution: > 100 µM

Problem: Could you share what TGI was measured for CCCCCCCCCc1cc(-c2ccc(C=O)s2)sc1-c1ccc(C=O)s1 , tested on SF-539 CNS?
Solution: > 84.3 µM

Problem: Can you look up TGI on SF-539 CNS for O=c1cc2ccccc2nn1Cc1cccc(Cl)c1 ?
Solution: > 100 µM

Problem: For the record CCCCCC/C=C1\CCC(CN2CCCC2)C1=O (stereo unspecified) , what value of TGI is listed for SF-539 CNS?
Solution: 34.1 µM

Problem: Query for SF-539 CNS: what TGI does the record show for Cc1ccc(-n2c3c(c4c(CN(C)C)c(O)ccc42)CCc2ccccc2C3=O)cc1 ?
Solution: 36 µM

Problem: Param readout = TGI; param system = SF-539 CNS; param query = CC(C)[C@H](CO)Nc1nc(Nc2ccc(C(=O)NCCNS(=O)(=O)c3cccc4c(N(C)C)cccc34)c(Cl)c2)c2ncn(C(C)C)c2n1 ; response: value
Solution: 4.39 µM

Problem: TGI of COc1cc(-c2nn(-c3cccc(NC(=O)Nc4cc(C(F)(F)F)cc(C(F)(F)F)c4)c3)cc2-c2ccncc2)ccc1Cl on SF-539 CNS?
Solution: 1.75 µM

Problem: // fetch SF-539 CNS TGI for O=C(/C=C/c1cccnc1)NCCCCC1CCCN(C(=O)c2ccccc2)C1 (stereo unspecified)
Solution: > 100 µM

Problem: Look up TGI with SF-539 CNS for this compound: O=C1C=C(Sc2ccccc2)c2nccc3c2c1nc1ccccc13
Solution: 31.1 µM

Problem: Enter reported TGI observed with SF-539 CNS for CC1(c2cccc3ccccc23)OC(=O)c2ccccc21 (stereo unspecified)
Solution: 30.2 µM

Problem: Report TGI for O/C(=C\c1nc2ccccc2nc1/C=C(\O)c1ccc(Cl)cc1)c1ccccc1 tested on SF-539 CNS.
Solution: > 100 µM

Problem: Identify the measured TGI of CC(=O)NC(C)(C)C1CC=C(C)CC1 (stereo unspecified) for SF-539 CNS.
Solution: > 100 µM

Problem: Given the entry COC1CC(OC2C(C)OC(OC3C(C)OC(OC4C(O)CC(O[C@H]5CC[C@@]6(C)C(=CC[C@]7(O)[C@@H]6C[C@@H](OC(=O)/C=C/c6ccccc6)[C@@]6(C)[C@]7(O)CC[C@@]6(O)C(C)=O)C5)OC4C)CC3OC)CC2OC)OC(C)C1O (stereo partly specified) , what TGI was observed with SF-539 CNS?
Solution: > 6.25 µM

Problem: Test system SF-539 CNS; read-out TGI; what value for COc1cc(C)c2c(=O)c3ccccc3n(C)c2c1 ?
Solution: 34 µM

Problem: Short answer please: TGI, SF-539 CNS, entry NC(=O)C(N)=O
Solution: > 100 µM

Problem: Requested read-out TGI, target or system SF-539 CNS, entry COc1cccc(NC(=O)/C(CC(=O)CC(c2ccccc2)c2c(O)c3ccccc3oc2=O)=N\NC(C)(C)C)c1OC (stereo unspecified)
Solution: > 100 µM

Problem: # returns recorded TGI (system: SF-539 CNS) for Cc1ccc(N=Nc2ccc(O)c(CN(C)C)c2)cc1C
Solution: 44.1 µM

Problem: Value wanted: TGI (SF-539 CNS) of entry Cc1nc2sc3ccccc3n2c(=O)c1N=Nc1ccc(Br)cc1
Solution: > 100 µM

Problem: Record lookup: for SF-539 CNS, what TGI belongs to COC(=O)Nc1nc2cc(OC)c(OC)cc2c(=O)[nH]1 ?
Solution: > 100 µM

Problem: Recall the recorded TGI for O=C1c2ccccc2NC(=O)C2C1C(c1ccccc1)CC2(O)c1ccccc1 (stereo unspecified) with SF-539 CNS and state it.
Solution: > 100 µM

Problem: Form: Entry = COC(=O)N1CCc2c(nc(N(C)CCO)[nH]c2=O)C1 | System = SF-539 CNS | TGI = ____
Solution: > 100 µM

Problem: Test system SF-539 CNS; read-out TGI; what value for Cc1cc2nc(CCC(=O)O)c(=O)[nH]c2cc1C ?
Solution: > 100 µM

Problem: SF-539 CNS / TGI / N#Cc1c(Cl)cccc1Oc1ccc(S(=O)(=O)/N=C(\NN)Nc2ccc(Cl)cc2)cc1 : value?
Solution: 36.6 µM

====

Tested on: SF-295 CNS
Assay: NCI tumour cell line growth inhibition, 48 h; in the data active = GI50 below about 0.43 µM; inactive = the rest
Hi there, use one of these labels in your reply, thanks! active, inactive

Problem: Each molecule tested received a call. Report the one for O=C(Nc1cc(Cl)cc(Cl)c1)c1ccc(NC2=C(Cl)C(=O)N(Cc3ccc(Cl)cc3Cl)C2=O)cc1 .
Solution: inactive

Problem: Record request — test call for COc1ccccc1CCN=C1NC(=O)/C(=C/c2ccc3ncccc3c2)S1
Solution: inactive

Problem: Test call for this molecule, please: Cc1cc2nc3c4cc(N)ccc4n(CCN(C)C)c3nc2cc1C
Solution: inactive

Problem: Call for entry CC(C)[C@H](CO)Nc1nc(Nc2ccc(C(=O)NCCNS(=O)(=O)c3cccc4c(N(C)C)cccc34)c(Cl)c2)c2ncn(C(C)C)c2n1 :
Solution: inactive

Problem: Recorded test outcome, item O=C(c1ccco1)c1nc2cc(Cl)ccc2[n+]([O-])c1C(F)(F)F
Solution: inactive

Problem: So what was the verdict on CC[C@H](Nc1nc(NCc2cnc(C)cc2C)c2ncn(C(C)C)c2n1)[C@@H](C)O in this test?
Solution: active

Problem: For CC(C)(C)c1nn(-c2ccccc2)c2c1C(=O)CSC(c1ccccc1Cl)N2 (configuration not stated) , what call appears in the results of this test?
Solution: inactive

Problem: GET /call?item= Cc1ccccc1N=Nc1ccc(NC(=O)c2ccnn2C)c(C)c1 returns the recorded outcome of this test.
Solution: inactive

Problem: Look up the recorded call for O=C1C(=O)c2ccccc2C(O)=C1CC=C(Br)Br in this test.
Solution: inactive

Problem: Any idea what this test logged for COc1cc2cc(Oc3ccc(NC(=O)Nc4cccc(C(F)(F)F)c4)cc3)c(C)nc2cc1OC ?
Solution: inactive

Problem: Kindly provide the recorded test outcome for the following molecule: CCOc1ccc(-c2nonc2NC(=O)c2cccc(C)c2)cc1OCC
Solution: inactive

Problem: Which result was noted for this molecule in the test: CC(=O)[CH-]C(=O)c1ccccc1.CC(=O)[CH-]C(=O)c1ccccc1.[Eu+3].[OH-].[OH3+]
Solution: inactive
